These entries and their values trace back to ChEMBL document CHEMBL1137256.

molecular target: Glycogen phosphorylase, liver form (Rattus norvegicus, UniProt P09811)
Sequence (P09811 whole entry): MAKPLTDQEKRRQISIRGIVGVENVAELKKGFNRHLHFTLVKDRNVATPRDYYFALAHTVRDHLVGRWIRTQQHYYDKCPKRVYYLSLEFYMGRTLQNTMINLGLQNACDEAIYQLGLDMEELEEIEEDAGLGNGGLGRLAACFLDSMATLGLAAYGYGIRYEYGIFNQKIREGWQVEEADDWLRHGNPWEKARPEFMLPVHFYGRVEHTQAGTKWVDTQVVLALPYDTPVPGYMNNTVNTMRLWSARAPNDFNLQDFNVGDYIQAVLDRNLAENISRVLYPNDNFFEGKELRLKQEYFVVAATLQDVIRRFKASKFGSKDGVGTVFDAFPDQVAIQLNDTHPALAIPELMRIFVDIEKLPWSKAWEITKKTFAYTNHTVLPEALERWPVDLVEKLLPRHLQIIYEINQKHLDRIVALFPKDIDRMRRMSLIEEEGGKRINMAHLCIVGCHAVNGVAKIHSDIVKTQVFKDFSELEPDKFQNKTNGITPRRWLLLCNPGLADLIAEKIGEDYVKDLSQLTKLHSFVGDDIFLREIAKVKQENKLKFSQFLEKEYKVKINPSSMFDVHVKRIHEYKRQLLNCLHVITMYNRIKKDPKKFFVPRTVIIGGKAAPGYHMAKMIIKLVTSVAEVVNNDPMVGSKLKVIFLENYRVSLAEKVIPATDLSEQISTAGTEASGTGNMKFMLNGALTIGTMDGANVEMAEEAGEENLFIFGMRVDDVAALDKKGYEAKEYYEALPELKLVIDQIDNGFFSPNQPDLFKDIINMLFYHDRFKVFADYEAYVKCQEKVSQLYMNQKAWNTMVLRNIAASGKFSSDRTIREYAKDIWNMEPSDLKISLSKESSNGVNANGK
PROPERTY_LABEL: IC50 (µM)
Please reply with the bare figure in µM and do not write the unit itself.

IN: # get_value(readout= IC50, system= Glycogen phosphorylase, liver form (Rattus norvegicus, UniProt P09811)) for OC[C@H]1CN(CCCc2ccccc2)C[C@@H](O)[C@@H]1O
OUT: 1.22

====

tested on: Hepatocyte; assay: cells; conditions: Homo sapiens
Description: Inhibition of glucagon-stimulated glycogen degradation in hepatocytes
PROPERTY_LABEL: IC50 (nM)
Please reply with the bare figure in nM and do not write the unit itself.

IN: # get_value(readout= IC50, system= Hepatocyte) for OC[C@H]1CNC[C@@H](O)[C@@H]1O [AFEGOSTAT]
OUT: 2000
